I'd appreciate it if you could supply IC50 values for the items below.
Measured target: UniProtKB P0C6X7
Test details: biochemical
Assay setup: ID50
// return numeric value only (unit: µM, not printed)

Q) Endpoint output: IC50 of `O=c1ccc2ccc(O)c(O)c2o1` . Value?
A) 168

Q) Returns the measured IC50 for the input compound. Input: `CC(=O)Nc1cc2cc(OC(C)=O)c(OC(C)=O)cc2oc1=O`
A) 183

Q) What value of IC50 has been recorded for this entry: O=c1oc2c(O)c(O)ccc2cc1O [Compound C21, 3,7,8-trihydroxycoumarin]
A) 100

Q) Suppose we examine the compound O=c1oc2cc(O)c(O)cc2cc1O [Compound C11, 3-hydroxyesculetin] ; what IC50 value has been reported?
A) 97

Q) What value of IC50 has been reported for the following compound? `CC(=O)Nc1cc2ccc(OC(C)=O)c(OC(C)=O)c2oc1=O`
A) 184

---

Measured target: SARS 3CL^PRO (Severe acute respiratory syndrome coronavirus)
Test details: biochemical
Assay setup: ID50 (μM) (by kinetic assay) SARS 3CL^PRO
Value type: IC50 (µM)
The answer is to be given in µM; state only the numeric part.

Q) Entry O=c1oc2cc(O)c(O)cc2cc1O [Compound C11, 3-hydroxyesculetin] , system SARS 3CL^PRO (Severe acute respiratory syndrome coronavirus): what IC50 was measured?
A) 96.6
